Catalogue of IC50 readings, one per entry.
- System: HIV-1IIIB
- methodDescription: Anti-HIV activity: inhibition of HIV-induced cytopathic effect in infected MT-4 cells (MTT)
- Type: cell-based, Human immunodeficiency virus type 1
- reportedConditions: Human immunodeficiency virus 1, MT4, 120 h, read-out: IC50, 50% antiviral effect concentration, HIV-1IIIB-infected MT-4 cells, 5 days, MTT; mean ± S.E.M, n = 3
Numbers only; they are read as µg/mL.

Below, 3 molecules whose answers are already recorded.
- CO[C@@]12C[C@]3(C)CCC[C@H](C)[C@@]3(O)CC1=C(C)C(=O)O2 [Compound 1]: 0.002
- CC1=C2C[C@]3(O)[C@@H](C)CCC[C@@]3(C)C[C@@H]2OC1=O [Compound 3]: 0.04
- Cc1cn([C@H]2C[C@H](N=[N+]=[N-])[C@@H](CO)O2)c(=O)[nH]c1=O [AZT, zidovudine, reference compound]: 0.002

Need IC50 of Cc1ccnc2c1NC(=O)c1cccnc1N2C1CC1 [NVP, Nevirapine, reference compound] , thanks. 0.24

Need IC50 of CC1=C2C[C@]3(O)[C@@H](C)CCC[C@@]3(C)C[C@@]2(O)OC1=O [Compound 2] , thanks. 0.002

Need IC50 of C[C@H](Cn1cnc2c(N)ncnc21)OCP(=O)(O)O [TDF, tenofovir] , thanks. 0.04

// data source = paper PMC9610617
